// provenance: the supplement of paper PMC9112550

Below is a list of entries, each paired with its recorded shrunken log2 fold change value.
- Test system: Escherichia coli TOP10
- procedure.summary: shrunken log2 fold change of peptide-encoding DNA abundance (4.5 h post-induction vs induction); higher = less antimicrobial activity (less host growth inhibition)
- condition.summary: time post-induction: 4.5 h; library: site-saturation at positions 5, 18, 19, 20

[
  {
    "macromolecule.sequence": "RRIRNRPPRLPRPRPRPFQDPRP",
    "shrunken log2 fold change": -0.00135
  },
  {
    "macromolecule.sequence": "RRIRTRPPRLPRPRPRPKYTPRP",
    "shrunken log2 fold change": -0.508
  },
  {
    "macromolecule.sequence": "RRIRNRPPRLPRPRPRPEAMPRP",
    "shrunken log2 fold change": 0.616
  },
  {
    "macromolecule.sequence": "RRIRPRPPRLPRPRPRPALAPRP",
    "shrunken log2 fold change": 0.412
  },
  {
    "macromolecule.sequence": "RRIRNRPPRLPRPRPRPHQIPRP",
    "shrunken log2 fold change": -0.247
  },
  {
    "macromolecule.sequence": "RRIRRRPPRLPRPRPRPVRDPRP",
    "shrunken log2 fold change": 0.718
  },
  {
    "macromolecule.sequence": "RRIRPRPPRLPRPRPRPAQKPRP",
    "shrunken log2 fold change": 0.273
  },
  {
    "macromolecule.sequence": "RRIRERPPRLPRPRPRPVFVPRP",
    "shrunken log2 fold change": -0.178
  }
]

---

- Test system: Escherichia coli TOP10;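 also: peptides expressed intracellularly from a pBAD plasmid library in pooled LB shake-flask culture, induced with 0.3% L-arabinose, DNA abundance read by NGS, three biological replicates, DESeq2 with apeglm shrinkage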
- procedure.summary: shrunken log2 fold change of peptide-encoding DNA abundance (4.5 h post-induction vs induction); higher = less antimicrobial activity (less host growth inhibition)
- condition.summary: time post-induction: 4.5 h; library: site-saturation at positions 5, 18, 19, 20
Decide by shrunken log2 fold change: equal to or exceeding 0.02 means Condition met, less means Condition not met.

[
  {
    "macromolecule.sequence": "RRIRNRPPRLPRPRPRPLAQPRP",
    "measured.on": "Escherichia coli TOP10",
    "group": "Condition not met"
  },
  {
    "macromolecule.sequence": "RRIRIRPPRLPRPRPRPFPMPRP",
    "measured.on": "Escherichia coli TOP10",
    "group": "Condition not met"
  },
  {
    "macromolecule.sequence": "RRIRDRPPRLPRPRPRPFPRPRP",
    "measured.on": "Escherichia coli TOP10",
    "group": "Condition not met"
  },
  {
    "macromolecule.sequence": "RRIRPRPPRLPRPRPRPSRGPRP",
    "measured.on": "Escherichia coli TOP10",
    "group": "Condition met"
  },
  {
    "macromolecule.sequence": "RRIRNRPPRLPRPRPRPSGSPRP",
    "measured.on": "Escherichia coli TOP10",
    "group": "Condition not met"
  },
  {
    "macromolecule.sequence": "RRIRVRPPRLPRPRPRPQCEPRP",
    "measured.on": "Escherichia coli TOP10",
    "group": "Condition not met"
  },
  {
    "macromolecule.sequence": "RRIRFRPPRLPRPRPRPKNTPRP",
    "measured.on": "Escherichia coli TOP10",
    "group": "Condition not met"
  },
  {
    "macromolecule.sequence": "RRIRYRPPRLPRPRPRPPGCPRP",
    "measured.on": "Escherichia coli TOP10",
    "group": "Condition met"
  },
  {
    "macromolecule.sequence": "RRIRVRPPRLPRPRPRPPHHPRP",
    "measured.on": "Escherichia coli TOP10",
    "group": "Condition met"
  },
  {
    "macromolecule.sequence": "RRIRDRPPRLPRPRPRPEFWPRP",
    "measured.on": "Escherichia coli TOP10",
    "group": "Condition met"
  },
  {
    "macromolecule.sequence": "RRIRYRPPRLPRPRPRPQPDPRP",
    "measured.on": "Escherichia coli TOP10",
    "group": "Condition not met"
  },
  {
    "macromolecule.sequence": "RRIRRRPPRLPRPRPRPHAHPRP",
    "measured.on": "Escherichia coli TOP10",
    "group": "Condition not met"
  },
  {
    "macromolecule.sequence": "RRIRTRPPRLPRPRPRPWQSPRP",
    "measured.on": "Escherichia coli TOP10",
    "group": "Condition met"
  },
  {
    "macromolecule.sequence": "RRIRIRPPRLPRPRPRPAQAPRP",
    "measured.on": "Escherichia coli TOP10",
    "group": "Condition met"
  },
  {
    "macromolecule.sequence": "RRIRNRPPRLPRPRPRPHRSPRP",
    "measured.on": "Escherichia coli TOP10",
    "group": "Condition met"
  },
  {
    "macromolecule.sequence": "RRIRTRPPRLPRPRPRPPKWPRP",
    "measured.on": "Escherichia coli TOP10",
    "group": "Condition met"
  },
  {
    "macromolecule.sequence": "RRIRTRPPRLPRPRPRPITEPRP",
    "measured.on": "Escherichia coli TOP10",
    "group": "Condition not met"
  },
  {
    "macromolecule.sequence": "RRIRDRPPRLPRPRPRPKCPPRP",
    "measured.on": "Escherichia coli TOP10",
    "group": "Condition met"
  },
  {
    "macromolecule.sequence": "RRIRQRPPRLPRPRPRPILMPRP",
    "measured.on": "Escherichia coli TOP10",
    "group": "Condition met"
  },
  {
    "macromolecule.sequence": "RRIRFRPPRLPRPRPRPYTWPRP",
    "measured.on": "Escherichia coli TOP10",
    "group": "Condition not met"
  },
  {
    "macromolecule.sequence": "RRIRIRPPRLPRPRPRPMVWPRP",
    "measured.on": "Escherichia coli TOP10",
    "group": "Condition met"
  },
  {
    "macromolecule.sequence": "RRIRQRPPRLPRPRPRPTTVPRP",
    "measured.on": "Escherichia coli TOP10",
    "group": "Condition not met"
  },
  {
    "macromolecule.sequence": "RRIRNRPPRLPRPRPRPRRNPRP",
    "measured.on": "Escherichia coli TOP10",
    "group": "Condition not met"
  },
  {
    "macromolecule.sequence": "RRIRDRPPRLPRPRPRPEGSPRP",
    "measured.on": "Escherichia coli TOP10",
    "group": "Condition met"
  },
  {
    "macromolecule.sequence": "RRIRCRPPRLPRPRPRPTPWPRP",
    "measured.on": "Escherichia coli TOP10",
    "group": "Condition met"
  },
  {
    "macromolecule.sequence": "RRIRLRPPRLPRPRPRPAMHPRP",
    "measured.on": "Escherichia coli TOP10",
    "group": "Condition met"
  },
  {
    "macromolecule.sequence": "RRIRWRPPRLPRPRPRPTWVPRP",
    "measured.on": "Escherichia coli TOP10",
    "group": "Condition met"
  },
  {
    "macromolecule.sequence": "RRIRMRPPRLPRPRPRPQNTPRP",
    "measured.on": "Escherichia coli TOP10",
    "group": "Condition not met"
  },
  {
    "macromolecule.sequence": "RRIRVRPPRLPRPRPRPLDTPRP",
    "measured.on": "Escherichia coli TOP10",
    "group": "Condition not met"
  },
  {
    "macromolecule.sequence": "RRIRHRPPRLPRPRPRPCALPRP",
    "measured.on": "Escherichia coli TOP10",
    "group": "Condition not met"
  },
  {
    "macromolecule.sequence": "RRIRIRPPRLPRPRPRPIKVPRP",
    "measured.on": "Escherichia coli TOP10",
    "group": "Condition not met"
  },
  {
    "macromolecule.sequence": "RRIRQRPPRLPRPRPRPTKCPRP",
    "measured.on": "Escherichia coli TOP10",
    "group": "Condition met"
  }
]
